Attribution: PubChem BioAssay (NCATS)

ASSAY_INFO: P-glycoprotein substrates identified in KB-8-5-11 adenocarcinoma cell line, qHTS therapeutic library screen (AID 1346987); note: nearly all actives have a fitted effect of over 65% in size
EXPERIMENTAL_CONTEXT: KB-8-5-11 (P-gp overexpressing) viability, CellTiter-Glo, 72 h; series mostly up to 44.5 µM
Inconclusive results are not listed. Activity calls are given as the source filed them. Calls come from the whole dose curve; as a rule, active = well fitted inhibition curve with a large enough effect; inconclusive = small, poorly fitted or top-dose-only effect; inactive = flat fitted curve, though single readings scatter.
The reply should be one of these categories: active, inactive

Worked set:
What did this assay record as the result for CC(=O)O[C@H]1CC[C@H]2[C@@H]3CC[C@H]4CC(=O)C=C(C)[C@]4(C)[C@H]3CC[C@]12C ?
inactive

What did this assay record as the result for CNC(C)Cc1ccccc1 (stereo not given) ?
inactive

What did this assay record as the result for CCc1nn(C)c(C(=O)NCc2ccc(Oc3ccc(C)cc3)cc2)c1Cl ?
active

What did this assay record as the result for Cc1ccc2c(c1)[C@H]1CN(C)CC[C@H]1N2C(=O)CSc1nnnn1-c1ccc(Cl)cc1 ?
inactive

Let's switch to this compound now.
What did this assay record as the result for COc1ccc2c(c1)c(CCN(C)C)cn2S(=O)(=O)c1ccccc1 ?
inactive

* * *

ASSAY_INFO: qHTS for Inhibitors of the Functional Ribonucleoprotein Complex (vRNP) of Lassa (LASV) Arenavirus: LASV Primary Screen - GLuc reporter signal (AID 1347082); note: nearly all actives have a fitted effect of over 60% in size
EXPERIMENTAL_CONTEXT: LASV minigenome vRNP, Gaussia luciferase reporter; series mostly up to 57.5 µM
Results filed as inconclusive are left out. Calls of active or inactive are those of the source. Calls follow the shape of the full dose curve; tested in HEK293 reporter line.
The reply should be one of these categories: True (active), False (inactive)

What did this assay record as the result for CC1OCCC1=O (stereo unspecified) ?
False

* * *

ASSAY_INFO: OV-SAHO Cancer Cell Toxicity qHTS against the NCATS CANVASS Library (AID 1347348); note: nearly all actives have a fitted effect of over 55% in size
EXPERIMENTAL_CONTEXT: OV-SAHO viability, CellTiter-Glo luminescence, 72 h; series mostly up to 38.3 µM
Records with an inconclusive call do not appear. Active and inactive are the calls of the source. Calls come from the whole dose curve; as a rule, active = well fitted cell-killing curve with a large enough effect; inconclusive = small, poorly fitted or top-dose-only effect; inactive = flat fitted curve, though single readings scatter.
OBSERVATION_TYPE: outcome

Given the entry CN(C)Cc1c[nH]c2ccccc12 , report its measured outcome.
inactive

Given the entry CNCCc1c[nH]c2ccccc12 , report its measured outcome.
inactive

Given the entry CNCCc1ccccc1 , report its measured outcome.
inactive

* * *

Test system: CRL-7250
ASSAY_INFO: qHTS assay to identify novel small-molecules to repurpose for Merkel cell carcinoma treatment (AID 1296009); note: nearly all actives have a fitted effect of over 60% in size
EXPERIMENTAL_CONTEXT: MCC and control cell lines, CellTiter-Glo viability, 72 h; series mostly up to 92 µM
Records with an inconclusive call do not appear. The source made the active and inactive calls. Calls come from the whole dose curve; as a rule, active = well fitted inhibition curve with a large enough effect; inconclusive = small, poorly fitted or top-dose-only effect; inactive = flat fitted curve, though single readings scatter.
OBSERVATION_TYPE: outcome

Given the entry COc1ccccc1N1CCN(CC(C(=O)NC(C)(C)C)c2ccccc2)CC1 (centres undefined) , report its measured outcome.
inactive

Given the entry CCC(CC)CC1(C(=O)Nc2ccccc2SC(=O)C(C)C)CCCCC1 , report its measured outcome.
inactive

Given the entry Cc1c(C(=O)NCc2cccnc2)nn(-c2ccc(Cl)cc2Cl)c1-c1ccc(Cl)cc1 , report its measured outcome.
inactive

Given the entry C=C1CC/C=C(/CO)C(=O)C[C@@H]2[C@@H]1C[C@@]2(C)COC(C)=O , report its measured outcome.
inactive

Given the entry CC(=O)C1CCC(=O)N1Cc1ccccc1 (centres undefined) , report its measured outcome.
inactive

Given the entry On1ncc(C2CCNCC2)c1-c1cccc(-c2ccccc2)c1 , report its measured outcome.
inactive

Consider the additional compound presented here.
Given the entry O=S(=O)(O)c1ccc(Nc2ncnc3c2ncn3[C@@H]2O[C@H](CO)[C@@H](O)[C@H]2O)cc1 , report its measured outcome.
inactive

* * *

ASSAY_INFO: qHTS for Inhibitors of the Functional Ribonucleoprotein Complex (vRNP) of Lymphocytic Choriomeningitis Arenaviruses (LCMV): Viability assay - alamar blue signal for LCMV Primary Screen (AID 1347085); note: nearly all actives have a fitted effect of over 80% in size
EXPERIMENTAL_CONTEXT: alamar blue viability counter-screen, LCMV vRNP screen cells; series mostly up to 57.5 µM
Inconclusive results are not listed. The source made the active and inactive calls. The call rests on the fitted dose curve; tested in HEK293 reporter line.
The reply should be one of these categories: yes (1) = active, no (0) = inactive

What did this assay record as the result for COc1ccc2c(c1)OC[C@H]1c3cc4c(cc3O[C@@H]21)OCO4 ?
no (0)

What did this assay record as the result for C[C@H]1CCC2[C@](C)(CO)[C@@H](O)CC[C@]2(C)[C@@]12CCC(CO)(CCO)O2 (stereo partly specified) ?
no (0)

* * *

ASSAY_INFO: qHTS for Inhibitors of the Functional Ribonucleoprotein Complex (vRNP) of Lassa (LASV) Arenavirus: LASV Primary Screen - GLuc reporter signal (AID 1347082); note: nearly all actives have a fitted effect of over 60% in size
EXPERIMENTAL_CONTEXT: LASV minigenome vRNP, Gaussia luciferase reporter; series mostly up to 57.5 µM
Inconclusive results are not listed. The source made the active and inactive calls. Calls come from the whole dose curve; tested in HEK293 reporter line.
OBSERVATION_TYPE: outcome

Some solved entries appear below for comparison.
Given the entry C=CC(=O)c1ccc(CCCCCC)cc1 , report its measured outcome.
inactive

Given the entry C[C@@H]1C(=O)O[C@H]2[C@H](O)[C@@]34[C@H]5CC(C(C)(C)C)[C@]36[C@H](OC(=O)[C@H]6O)O[C@]4(C(=O)O5)[C@@]12O (stereo partly specified) , report its measured outcome.
inactive

Given the entry C/C=C1/CN2C3CC1C(CO)(C(=O)OC)C2Cc1c3n(C)c2ccccc12 (stereo unspecified) , report its measured outcome.
inactive

Given the entry CCN1C[C@]2(C)CCC(OC)[C@@]34C5C[C@@H]6CC[C@@](O)(C5C(=O)O6)[C@@H](C(O)C23)[C@@H]14 (stereo partly specified) , report its measured outcome.
inactive

Given the entry Cc1ccc(C(=O)N(CCCN)[C@@H](c2oc3cc(Cl)ccc3c(=O)c2Cc2ccccc2)C(C)C)cc1 , report its measured outcome.
inactive

Given the entry O=CN1CCCCC1 , report its measured outcome.
inactive

Given the entry O=C1O/C(=C/Br)CCC1c1cccc2ccccc12 (stereo unspecified) , report its measured outcome.
inactive

Given the entry COc1cc2c(c(OC)c1OC)-c1c(cc3c(c1OC)OCO3)C1OC2[C@@H](C)[C@H]1C (stereo partly specified) , report its measured outcome.
inactive

Given the entry O=C1C[C@@H](c2ccc(O)c(O)c2)Oc2c1ccc(O[C@@H]1O[C@H](CO)[C@@H](O)[C@H](O)[C@H]1O)c2O , report its measured outcome.
inactive

Given the entry COc1cccc(C(=O)NCCN2CCN(c3ccc(Cl)cc3)CC2)c1 , report its measured outcome.
inactive

Further cases:
Given the entry O=c1cc(-c2cccc3c2Sc2ccccc2S3)oc(N2CCOCC2)c1 , report its measured outcome.
inactive

Given the entry CC1=C(O)C(=O)[C@@H]2O[C@@H]2C1=O , report its measured outcome.
inactive

Given the entry O=C1NC2C(=CC(O)C(O)C2O)c2cc3c(c(O)c21)OCO3 (stereo unspecified) , report its measured outcome.
inactive

Given the entry Cc1nc2sccn2c(=O)c1CCN1CCC(=C(c2ccccc2)c2ccc(F)cc2)CC1 , report its measured outcome.
inactive

Given the entry CC(C)(O)[C@H](O)COc1c2occc2cc2ccc(=O)oc12 , report its measured outcome.
inactive

Given the entry Nn1nnc2ccccc21 , report its measured outcome.
inactive

Given the entry CC(=O)O[C@H]1C(=O)[C@@]2(C)C([C@H](OC(=O)c3ccccc3)[C@]3(O)C[C@H](OC(=O)[C@H](O)[C@@H](NC(=O)c4ccccc4)c4ccccc4)C(C)=C1C3(C)C)[C@]1(OC(C)=O)CO[C@@H]1C[C@H]2O (stereo partly specified) , report its measured outcome.
inactive

Given the entry CNCCc1cnc(CCC(c2ccccc2)c2ccccc2)[nH]1 , report its measured outcome.
inactive

* * *

Tested on: HaCat
ASSAY_INFO: Cytotoxic Profiling of Annotated Libraries Using Quantitative High-Throughput Screening (AID 1296008); note: nearly all actives have a fitted effect of over 60% in size
EXPERIMENTAL_CONTEXT: Five cell lines viability, CellTiter-Glo ATP luminescence, 48-72 h
Results filed as inconclusive are left out. Active and inactive are the calls of the source. Calls come from the whole dose curve; as a rule, active = well fitted inhibition curve with a large enough effect; inconclusive = small, poorly fitted or top-dose-only effect; inactive = flat fitted curve, though single readings scatter.
The reply should be one of these categories: active, inactive

Worked set:
What did this assay record as the result for O=C1N[C@@H](Cc2ccccc2)CN2CCCC[C@@H]12 ?
inactive

What did this assay record as the result for CN[C@@H]1C[C@H]2O[C@@](C)([C@@H]1OC)n1c3ccccc3c3c4c(c5c6ccccc6n2c5c31)C(=O)NC4 ?
active

Let's switch to this compound now.
What did this assay record as the result for CNc1ccc2oc(C[C@H]3O[C@@]4(CC[C@H]3C)O[C@H](C(C)C(=O)c3ccc[nH]3)[C@H](C)C[C@H]4C)nc2c1C(=O)O (stereo partly drawn) ?
active

* * *

ASSAY_INFO: qHTS for Inhibitors of the Functional Ribonucleoprotein Complex (vRNP) of Lymphocytic Choriomeningitis Arenaviruses (LCMV): Viability assay - alamar blue signal for LCMV Primary Screen (AID 1347085); note: nearly all actives have a fitted effect of over 80% in size
EXPERIMENTAL_CONTEXT: alamar blue viability counter-screen, LCMV vRNP screen cells; series mostly up to 57.5 µM
Results filed as inconclusive are left out. Active and inactive are the calls of the source. Calls come from the whole dose curve; tested in HEK293 reporter line.
The reply should be one of these categories: active, inactive

What did this assay record as the result for Cn1cnc2c(ncn2[C@@H]2O[C@H](CO)[C@@H](O)[C@H]2O)c1=N ?
inactive

What did this assay record as the result for c1cnc2c(-c3nccc4c3[nH]c3ccccc34)cccc2c1 ?
inactive

What did this assay record as the result for COc1cc(-c2nn(C3CCC(N4CCN(C(C)=O)CC4)CC3)c3ncnc(N)c23)ccc1NC(=O)c1cc2ccccc2n1C (stereo not given) ?
active

What did this assay record as the result for O=C(CC12CC3CC(CC(C3)C1)C2)Nc1cccc2nc(NCCNCCO)ccc12 ?
active

What did this assay record as the result for CCCc1c(-c2ccc(O)cc2)nn(-c2ccc(O)cc2)c1-c1ccc(O)cc1 ?
inactive

What did this assay record as the result for CC(C)=CCCC(C)CCO (stereo not given) ?
inactive

What did this assay record as the result for CN1CCc2cc3c(cc2C1)OCO3 ?
inactive

What did this assay record as the result for CC(C)OC(=O)[C@H](C)N[P@](=O)(OC[C@H]1O[C@@H](n2ccc(=O)[nH]c2=O)[C@](C)(F)[C@H]1O)Oc1ccccc1 ?
inactive

What did this assay record as the result for C=C1C(=O)OC2C=C(CO)CCC=C(CO)CC(OC(=O)C(C)C)C12 (stereo not given) ?
inactive

Let's switch to this molecule now.
What did this assay record as the result for O=C(O)c1cc(=O)cc(C(=O)O)[nH]1 ?
inactive
